# maps each entry to its pIC50
# Tested target: IDH2 R140Q (Homo sapiens, UniProt P48735, R140Q)
# Sequence (P48735 40-452 R140Q): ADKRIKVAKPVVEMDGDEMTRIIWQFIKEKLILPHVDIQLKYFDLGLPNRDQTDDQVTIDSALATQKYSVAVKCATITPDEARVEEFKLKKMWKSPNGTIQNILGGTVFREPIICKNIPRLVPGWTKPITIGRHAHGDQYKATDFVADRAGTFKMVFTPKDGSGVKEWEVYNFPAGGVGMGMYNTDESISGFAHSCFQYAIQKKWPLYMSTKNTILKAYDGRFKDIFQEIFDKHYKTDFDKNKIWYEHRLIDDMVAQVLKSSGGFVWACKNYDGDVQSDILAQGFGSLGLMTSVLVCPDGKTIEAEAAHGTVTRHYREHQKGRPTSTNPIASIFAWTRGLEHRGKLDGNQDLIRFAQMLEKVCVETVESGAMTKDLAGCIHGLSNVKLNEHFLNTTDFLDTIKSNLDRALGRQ
# Assay overview: IDH2 R140Q enzymatic assay (NADPH cofactor depletion, diaphorase/resazurin readout)
# Study conditions: IDH2 R140Q enzyme, 16 hours preincubation, class symbols; read-out: Enz R140Q
# Description: Compounds are assayed for IDH2 R172K inhibitory activity through a cofactor depletion assay. […] The reaction is terminated by the addition of a second enzyme, diaphorase, and a corresponding substrate, resazurin. […]
pIC50: −log10 of the molar value.

| Compound | Attribute measured | Reported |
| --- | --- | --- |
| FC(F)(F)c1ccnc(Nc2cc(NCC3CC3)nc(-c3cccc(C(F)(F)F)n3)n2)c1 [Compound 715] | pIC50 | > 7.30 |

(Q) If you can, please state the reported pIC50 value of CC(C)(CO)Nc1cc(Nc2cc(C(F)(F)F)ncn2)nc(-c2cccc(C(F)(F)F)n2)n1 [Compound 725] .
(A) 7.00 to 7.30

(Q) Can you look up the measured pIC50 of CC(C)(O)CNc1cc(Nc2ccnc(C(F)(F)F)c2)nc(-c2cccc(C(F)(F)F)n2)n1 [Compound 709] for me?
(A) < 7.00

(Q) Return reported pIC50; argument: CC(C)Nc1cc(-c2cccc(C(F)(F)F)n2)nc(Nc2ccnc(C(F)(F)F)c2)n1 [Compound 739]
(A) > 7.30
